test_protocol: log P by reversed-phase HPLC (EEC Directive 79/831 Annex V.A8)
Format: physicochemical
condition_set: reversed-phase C 18, 40° C., 0.1% aqueous formic acid and acetonitrile gradient
observable: log PHCOOH
Answer with a number only.

As a guide, the following entries are already answered.
| compound | log PHCOOH |
| --- | --- |
| CCCC(C)Nc1cc(Nc2nccc(-c3ccnc(NC(C)CCC)c3)n2)ccn1 (stereo not shown) [Compound 20] | 1.43 |
| c1cc(Nc2nccc(-c3ccnc(NC4CCCCC4)c3)n2)nc(NC2CCCCC2)c1 [Compound 4] | 1.70 |
| COCCCNc1cc(-c2ccnc(Nc3cccc(NCCCOC)n3)n2)ccn1 [Compound 6] | 0.83 |
| CC(C)C(C)Nc1cc(Nc2nccc(-c3ccnc(NC(C)C(C)C)c3)n2)ccn1 (stereo not shown) [Compound 18] | 1.34 |

According to the records, this compound CCC(CC)Nc1cc(Nc2nccc(-c3ccnc(NC(CC)CC)c3)n2)ccn1 [Compound 21] displays log PHCOOH of 1.33

According to the records, this compound CCC(C)Nc1cc(-c2ccnc(Nc3cccc(Cl)n3)n2)ccn1 (stereo not shown) [Compound 25] displays log PHCOOH of 2.00

According to the records, this compound COCC(C)Nc1cc(-c2ccnc(Nc3ccnc(Cl)c3)n2)ccn1 (stereo not shown) [Compound 35] displays log PHCOOH of 1.34

According to the records, this compound CC(C)C(C)Nc1cc(-c2ccnc(Nc3cccc(NC(C)C(C)C)n3)n2)ccn1 (stereo not shown) [Compound 33] displays log PHCOOH of 1.43

According to the records, this compound CC(C)C(C)Nc1cc(-c2ccnc(Nc3ccnc(Cl)c3)n2)ccn1 (stereo not shown) [Compound 10] displays log PHCOOH of 1.66

According to the records, this compound Clc1cc(Nc2nccc(-c3ccnc(NC4CCC4)c3)n2)ccn1 [Compound 11] displays log PHCOOH of 1.45

According to the records, this compound COCC(C)Nc1cc(-c2ccnc(Nc3ccc(OC)nc3)n2)ccn1 (stereo not shown) [Compound 38] displays log PHCOOH of 1.29

According to the records, this compound c1cc(Nc2nccc(-c3ccnc(NC4CCCCC4)c3)n2)cc(NC2CCCCC2)n1 [Compound 15] displays log PHCOOH of 1.52

According to the records, this compound CCC(COC)Nc1cc(Nc2nccc(-c3ccnc(NC(CC)COC)c3)n2)ccn1 (stereo not shown) [Compound 34] displays log PHCOOH of 1.10

According to the records, this compound COc1ccc(Nc2nccc(-c3ccnc(NC4COC4)c3)n2)cn1 [Compound 36] displays log PHCOOH of 1.10

According to the records, this compound CCCC(C)Nc1cc(-c2ccnc(Nc3ccnc(Cl)c3)n2)ccn1 (stereo not shown) [Compound 12] displays log PHCOOH of 1.72

====

Each entry below carries its reported log PHCOOH.
test_protocol: log P by reversed-phase HPLC (EEC Directive 79/831 Annex V.A8)
Assay type: physicochemical
condition_set: reversed-phase C 18, 40° C., 0.1% aqueous formic acid and acetonitrile gradient

According to the records, this compound Clc1cc(Nc2nccc(-c3ccnc(NC4CCCC4)c3)n2)ccn1 [Compound 14] displays log PHCOOH of 1.58

According to the records, this compound c1cc(Nc2nccc(-c3ccnc(NC4CCC4)c3)n2)cc(NC2CCC2)n1 [Compound 19] displays log PHCOOH of 1.05

According to the records, this compound CCC(C)Nc1cc(Nc2nccc(-c3ccnc(NC(C)CC)c3)n2)ccn1 (stereo not shown) [Compound 23] displays log PHCOOH of 1.10

According to the records, this compound CCC(COC)Nc1cc(-c2ccnc(Nc3cccc(Cl)n3)n2)ccn1 (stereo not shown) [Compound 29] displays log PHCOOH of 1.85
